# credit: ChEMBL document CHEMBL1154675

target: Death-associated protein kinase 3 (Homo sapiens, UniProt O43293); assay: Inhibition of DAPK3 at 10 uM
Sequence (O43293 whole entry, looked up): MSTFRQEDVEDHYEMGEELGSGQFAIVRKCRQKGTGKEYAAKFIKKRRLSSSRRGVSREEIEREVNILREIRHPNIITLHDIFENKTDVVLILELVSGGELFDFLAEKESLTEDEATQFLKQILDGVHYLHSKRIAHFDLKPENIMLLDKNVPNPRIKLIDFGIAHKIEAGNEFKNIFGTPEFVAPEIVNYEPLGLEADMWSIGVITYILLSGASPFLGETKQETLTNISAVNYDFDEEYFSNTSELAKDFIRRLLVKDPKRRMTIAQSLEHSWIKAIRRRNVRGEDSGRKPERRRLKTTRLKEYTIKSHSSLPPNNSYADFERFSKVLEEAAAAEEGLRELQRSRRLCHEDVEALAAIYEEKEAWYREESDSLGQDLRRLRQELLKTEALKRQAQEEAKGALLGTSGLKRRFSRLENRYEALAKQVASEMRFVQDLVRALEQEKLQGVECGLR
Exercise: for every item that follows, state its recorded inhibition.
Report only the number, with the unit % understood.

Briefly, inhibition measured for "O=C1OC(/C=C/c2ccccc2)=NC/1=C\c1cccnc1" : 58

Briefly, inhibition measured for "Cc1ccccc1C1=N/C(=C\c2cccnc2)C(=O)O1" : 58

Briefly, inhibition measured for "O=C1OC(C23CC4CC(CC(C4)C2)C3)=N/C1=C\c1cccnc1" : 58
